Target under test: fusion protein PRN
Sequence (chain, as listed by the source): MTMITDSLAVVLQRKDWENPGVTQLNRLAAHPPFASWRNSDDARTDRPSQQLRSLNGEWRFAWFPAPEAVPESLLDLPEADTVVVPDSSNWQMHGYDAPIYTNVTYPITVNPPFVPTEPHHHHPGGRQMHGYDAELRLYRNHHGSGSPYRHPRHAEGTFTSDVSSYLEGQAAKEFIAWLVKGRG
relative cleavage efficiency overview

{"columns": ["Protein", "relative cleavage efficiency"],
 "data": [
  ["OmpT protease variant OmpT D97M (protein) STETLSFTPDNINADISLGTLSGKTKERVYLAEEGGRKVSQLDWKFNNAAIIKGAINWDLMPQISIGAAGWTTLGSRGGNMVDQDWMDSSNPGTWTMESRHPDTQLNYANEFDLNIKGWLLNEPNYRLGLMAGYQESRYSFTARGGSYIYSSEEGFRDDIGSFPNGERAIGYKQRFKMPYIGLTGSYRYEDFELGGTFKYSGWVESSDNDEHYDPGKRITYRSKVKDQNYYSVAVNAGYYVTPNAKVYVEGAWNRVTNKKGNTSLYDHNNNTSDYSKNGAGIENYNFITTAGLKYTF", "< 3%"]
]}

Turning now to a further protein:
relative cleavage efficiency reported for this protein OmpT protease variant OmpT D97S (protein) STETLSFTPDNINADISLGTLSGKTKERVYLAEEGGRKVSQLDWKFNNAAIIKGAINWDLMPQISIGAAGWTTLGSRGGNMVDQDWMDSSNPGTWTSESRHPDTQLNYANEFDLNIKGWLLNEPNYRLGLMAGYQESRYSFTARGGSYIYSSEEGFRDDIGSFPNGERAIGYKQRFKMPYIGLTGSYRYEDFELGGTFKYSGWVESSDNDEHYDPGKRITYRSKVKDQNYYSVAVNAGYYVTPNAKVYVEGAWNRVTNKKGNTSLYDHNNNTSDYSKNGAGIENYNFITTAGLKYTF : < 3%
